Target: T1, human PTHrP (1-34) (human)
T1 construct: Synthetic peptide (Peninsula; Peptide Research Institute), coated on ELISA plates at 1 ug/ml; added at 1 ng/ml final in the cAMP assay; also called parathyroid hormone related peptide (1-34)
Assay: ELISA, plate coated with human PTHrP (1-34)
ENDPOINT NAME: binding result

chimeric #23-57-137-1 antibody with L-chain lambda chain C-region (antibody, V domains shown, Mouse V-regions joined to human H-chain C-region Cgamma1 and human lambda C-region (isotype Mcg+Ke+Oz-, EMBL X57819); expressed in COS-7 cells; also called chimeric antibody; MBC1HcDNA/pCOS1 and MBC1L(λ)/neo) VH: EVQLVESGGDLVKPGGSLKLSCAASGFTFSSYGMSWIRQTPDKRLEWVATISSGGSYTYYPDSVKGRFTISRDNAKNTLYLQMSSLKSEDTAMFYCARQTTMTYFAYWGQGTLVTVSA VL: QLVLTQSSSASFSLGASAKLTCTLSSQHSTYTIEWYQQQPLKPPKYVMDLKQDGSHSTGDGIPDRFSGSSSGADRYLSISNIQPEDEAMYICGVGDTIKEQFVYVFGGGTKVTVLG    binds
humanized #23-57-137-1 antibody having L-chain version "j" (antibody, V domains shown, Humanized H-chain version a with human Cgamma1; human lambda C-region; COS-7 expressed; also called hMBC1HcDNA/pCOS1 and hMBC1Ljλ/pCOS1) VH: QVQLVESGGGVVQPGRSLRLSCAASGFTFSSYGMSWVRQAPGKGLEWVATISSGGSYTYYPDSVKGRFTISRDNSKNTLYLQMNSLRAEDTAVYYCARQTTMTYFAYWGQGTLVTVSS VL: QLVLTQSPSASASLGASVKLTCTLSSQHSTYTIEWYQQQPEKGPKYLMDLKQDGSHSTGDGIPDRFSGSSSGAERYLTISSLQSEDEADYYCGVGDTIKEQFVYVFGGGTKLTVLG    binds
